Target: human mAChRM1 (Homo sapiens, UniProt P11229)
Construct: host or cells: CHO-K1
Sequence (P11229 1-460): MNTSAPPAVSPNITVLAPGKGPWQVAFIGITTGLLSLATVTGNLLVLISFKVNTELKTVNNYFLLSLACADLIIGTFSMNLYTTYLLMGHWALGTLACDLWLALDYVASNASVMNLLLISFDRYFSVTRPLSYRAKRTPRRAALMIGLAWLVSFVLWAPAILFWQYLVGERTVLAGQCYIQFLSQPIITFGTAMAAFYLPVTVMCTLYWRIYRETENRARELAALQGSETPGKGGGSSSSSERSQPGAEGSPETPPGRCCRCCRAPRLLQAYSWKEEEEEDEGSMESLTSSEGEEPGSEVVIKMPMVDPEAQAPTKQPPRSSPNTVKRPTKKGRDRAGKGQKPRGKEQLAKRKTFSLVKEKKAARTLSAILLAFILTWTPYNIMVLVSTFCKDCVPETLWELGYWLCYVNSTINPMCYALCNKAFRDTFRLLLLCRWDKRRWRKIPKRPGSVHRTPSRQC
Experiment: mAChR M1 cell-based functional assay (calcium mobilization), agonist activity upon compound addition, Emax relative to acetylcholine maximum
Conditions: relative to the maximum for acetylcholine
RECORDED METRIC: Emax (%)

SAMPLE SMILES: Cc1cc(-c2ccc(C(C)(C)O)c3nn(C)cc23)ccc1CN1Cc2cccnc2C1=O
UNIT ANNOTATION: %
REPORTED: 14

SAMPLE SMILES: Cn1cc2c(-c3cc(Cl)c(CN4Cc5ncccc5C4=O)c(Cl)c3)ccc(C(C)(C)O)c2n1
UNIT ANNOTATION: %
REPORTED: 15

SAMPLE SMILES: Cn1cc2c(-c3cc(F)c(CN4Cc5ncccc5C4=O)c(F)c3)ccc(C3(O)COC3)c2n1
UNIT ANNOTATION: %
REPORTED: 11

SAMPLE SMILES: CCn1cc2c(-c3cc(F)c(CN4Cc5ncccc5C4=O)c(F)c3)ccc(C(C)(C)O)c2n1
UNIT ANNOTATION: %
REPORTED: 13

----------
molecular target: human mAChRM1 (Homo sapiens); construct: host or cells: CHO-K1; test: mAChR M1 cell-based functional assay (calcium mobilization), positive allosteric modulator activity: increase in the EC20 acetylcholine response; details: PAM mode

COMPOUND: COc1cc(-c2ccc(C(C)(C)O)c3nn(C)cc23)cc(F)c1CN1Cc2ncccc2C1=O [Compound 60]
Emax [%]: 68

COMPOUND: Cn1cc2cc(-c3cc(F)c(CN4Cc5cccc(F)c5C4=O)cc3F)cc(C(C)(C)O)c2n1 [Compound 169]
Emax [%]: 76

COMPOUND: Cc1cc(-c2cn(C)nc2C(C)(C)O)ccc1CN1Cc2ncccc2C1=O [Compound 31]
Emax [%]: 47

COMPOUND: CC(C)(O)c1ccc(-c2cc(Cl)c(CN3Cc4ncccc4C3=O)c(Cl)c2)cc1 [Compound 46]
Emax [%]: 65

COMPOUND: Cn1ncc2c(-c3cc(F)c(CN4Cc5cccc(F)c5C4=O)c(F)c3)ccc(C(C)(C)O)c21 [Compound 157]
Emax [%]: 61

COMPOUND: Cn1cc2c(-c3cc(F)c(CN4Cc5ncccc5C4=O)c(F)c3)ccc(C(C)(C)O)c2n1 [Compound 1]
Emax [%]: 78

COMPOUND: CC(C)(O)c1cccc(-c2cc(F)c(CN3Cc4ncccc4C3=O)c(F)c2)c1 [Compound 43]
Emax [%]: 64

COMPOUND: [2H]C([2H])([2H])n1cc2c(-c3cc(C)c(CN4Cc5ncccc5C4=O)c(F)c3)ccc(C(C)(C)O)c2n1 (single isomer, unassigned) [Compound 15]
Emax [%]: 77

COMPOUND: Cn1cc2c(-c3cnc(CN4Cc5ncccc5C4=O)cn3)ccc(C(C)(C)O)c2n1 [Compound 109]
Emax [%]: 70

COMPOUND: Cc1cc(-c2ccc(C(O)(C3CC3)C3CC3)c3nn(C)cc23)cc(F)c1CN1Cc2ncccc2C1=O [Compound 85]
Emax [%]: 81

COMPOUND: CC(C)(O)c1ccc(-c2cc(F)c(CN3Cc4ncccc4C3=O)c(F)c2)cn1 [Compound 6]
Emax [%]: 80

COMPOUND: Cn1cc2cc(-c3ccc(CN4Cc5ncccc5C4=O)c(F)c3)cc(C(C)(C)O)c2n1 [Compound 34]
Emax [%]: 65

----------
Below: a set of entries, each annotated with reported Emax.
biological target: human mAChRM1 (Homo sapiens, UniProt P11229); construct: host or cells: CHO-K1; assay: mAChR M1 cell-based functional assay (calcium mobilization), agonist activity upon compound addition, Emax relative to acetylcholine maximum; conditions: relative to the maximum for acetylcholine
RECORDED METRIC: Emax (%)

SAMPLE SMILES: Cn1cc2c(-c3cc(F)c(CN4Cc5cccc(F)c5C4=O)cc3F)ccc(C(C)(C)O)c2n1
ASSAY SYSTEM: human mAChRM1 (Homo sapiens, UniProt P11229)
RECORDED METRIC: Emax
UNIT ANNOTATION: %
REPORTED: 11
--
SAMPLE SMILES: Cn1cc2c(-c3ccc(CN4Cc5ncccc5C4=O)c(F)c3)ccc(C(C)(C)O)c2n1
ASSAY SYSTEM: human mAChRM1 (Homo sapiens, UniProt P11229)
RECORDED METRIC: Emax
UNIT ANNOTATION: %
REPORTED: 11
--
SAMPLE SMILES: COc1cc(-c2ccc(C(C)(C)O)c3nn(C)cc23)cc(F)c1CN1Cc2cccnc2C1=O
ASSAY SYSTEM: human mAChRM1 (Homo sapiens, UniProt P11229)
RECORDED METRIC: Emax
UNIT ANNOTATION: %
REPORTED: 17
--
SAMPLE SMILES: Cc1cc(-c2ccc(C(C)(C)O)c3nn(C)cc23)cc(F)c1CN1Cc2cccnc2C1=O
ASSAY SYSTEM: human mAChRM1 (Homo sapiens, UniProt P11229)
RECORDED METRIC: Emax
UNIT ANNOTATION: %
REPORTED: 34

----------
Molecular target: human mAChRM1 (Homo sapiens)
Construct: host or cells: CHO-K1
Sequence (P11229 1-460): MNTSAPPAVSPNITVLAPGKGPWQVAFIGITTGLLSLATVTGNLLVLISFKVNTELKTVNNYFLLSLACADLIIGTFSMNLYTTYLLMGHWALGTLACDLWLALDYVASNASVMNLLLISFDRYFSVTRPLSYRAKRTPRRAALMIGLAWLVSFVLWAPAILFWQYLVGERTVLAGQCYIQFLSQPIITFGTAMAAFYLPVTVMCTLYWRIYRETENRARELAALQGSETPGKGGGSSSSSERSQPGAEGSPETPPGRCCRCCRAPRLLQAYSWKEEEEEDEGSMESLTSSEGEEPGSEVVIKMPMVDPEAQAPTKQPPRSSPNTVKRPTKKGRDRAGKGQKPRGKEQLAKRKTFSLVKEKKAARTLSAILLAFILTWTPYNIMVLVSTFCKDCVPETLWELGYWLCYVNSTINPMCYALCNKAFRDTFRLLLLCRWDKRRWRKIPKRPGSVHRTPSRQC
Assay: mAChR M1 cell-based functional assay (calcium mobilization), agonist activity upon compound addition, Emax relative to acetylcholine maximum
Details: calcium mobilization upon compound addition

COMPOUND: CCC(O)(c1ccc(-c2cc(F)c(CN3Cc4ncccc4C3=O)c(F)c2)c2cn(C)nc12)C(F)(F)F (stereo not drawn)
Agonist Activity Human M1 EC50: inactive
//
COMPOUND: Cc1cc(-c2ccc(C(C)(C)O)cc2)ccc1CN1Cc2ncccc2C1=O
Agonist Activity Human M1 EC50: inactive
//
COMPOUND: CC(C)(O)c1ccc(-c2cc(F)c(CN3Cc4ncccc4C3=O)c(F)c2)cc1Cl
Agonist Activity Human M1 EC50: inactive

----------
Molecular target: human mAChRM1 (Homo sapiens, UniProt P11229)
Construct: host or cells: CHO-K1
Sequence (P11229 1-460): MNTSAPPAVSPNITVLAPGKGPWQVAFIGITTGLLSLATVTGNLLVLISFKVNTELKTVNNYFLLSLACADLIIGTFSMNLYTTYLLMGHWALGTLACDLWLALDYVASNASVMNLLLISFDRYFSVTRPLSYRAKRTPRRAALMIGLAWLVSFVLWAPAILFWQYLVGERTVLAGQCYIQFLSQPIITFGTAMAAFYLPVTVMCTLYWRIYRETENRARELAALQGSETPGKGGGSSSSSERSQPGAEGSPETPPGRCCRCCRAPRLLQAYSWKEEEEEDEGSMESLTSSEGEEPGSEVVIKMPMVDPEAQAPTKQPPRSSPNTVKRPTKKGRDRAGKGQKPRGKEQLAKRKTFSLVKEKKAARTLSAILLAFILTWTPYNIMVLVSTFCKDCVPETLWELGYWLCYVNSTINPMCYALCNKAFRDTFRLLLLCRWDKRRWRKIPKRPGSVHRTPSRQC
Experiment: mAChR M1 cell-based functional assay (calcium mobilization), agonist activity upon compound addition, Emax relative to acetylcholine maximum
Conditions: calcium mobilization upon compound addition
pEC50: −log10 of the molar value.
pEC50 reference

SAMPLE SMILES: Cc1cc(-c2ccc(C(C)(C)O)c3nn(C)cc23)ccc1CN1Cc2cccnc2C1=O
ASSAY SYSTEM: human mAChRM1 (Homo sapiens, UniProt P11229)
pEC50: ≤ 5.00

SAMPLE SMILES: Cn1cc2cc(-c3cc(F)c(CN4Cc5ncccc5C4=O)c(Cl)c3)cc(C(C)(C)O)c2n1
ASSAY SYSTEM: human mAChRM1 (Homo sapiens, UniProt P11229)
pEC50: ≤ 5.00

SAMPLE SMILES: Cn1cc2c(-c3ccc(CN4Cc5ncccc5C4=O)cc3)ccc(C(C)(C)O)c2n1
ASSAY SYSTEM: human mAChRM1 (Homo sapiens, UniProt P11229)
pEC50: ≤ 5.00

SAMPLE SMILES: Cc1cc(-c2ccc(C(C)(C)O)c3nn(C)cc23)cc(F)c1CN1Cc2cccnc2C1=O
ASSAY SYSTEM: human mAChRM1 (Homo sapiens, UniProt P11229)
pEC50: ≤ 5.00

SAMPLE SMILES: Cc1cc(-c2ccc(C(C)(C)O)c3nn(C)cc23)ccc1CN1Cc2ncccc2C1=O
ASSAY SYSTEM: human mAChRM1 (Homo sapiens, UniProt P11229)
pEC50: ≤ 5.00

SAMPLE SMILES: Cn1cc2c(-c3cc(Cl)c(CN4Cc5ncccc5C4=O)c(C4CC4)c3)ccc(C(C)(C)O)c2n1
ASSAY SYSTEM: human mAChRM1 (Homo sapiens, UniProt P11229)
pEC50: 5.21

SAMPLE SMILES: Cn1cc2c(-c3cc(Cl)c(CN4Cc5cccnc5C4=O)c(C4CC4)c3)ccc(C(C)(C)O)c2n1
ASSAY SYSTEM: human mAChRM1 (Homo sapiens, UniProt P11229)
pEC50: 5.04

SAMPLE SMILES: Cc1cnc2c(c1)C(=O)N(Cc1c(F)cc(-c3ccc(C(C)(C)O)c4nn(C)cc34)cc1F)C2
ASSAY SYSTEM: human mAChRM1 (Homo sapiens, UniProt P11229)
pEC50: ≤ 5.00

SAMPLE SMILES: CC(C)(O)c1cc(-c2cc(F)c(CN3Cc4ncccc4C3=O)c(F)c2)cc2cccnc12
ASSAY SYSTEM: human mAChRM1 (Homo sapiens, UniProt P11229)
pEC50: ≤ 5.00

SAMPLE SMILES: Cn1cc2c(-c3cc(F)c(CN4Cc5ncccc5C4=O)c(F)c3)ccc(C(C)(C)O)c2n1
ASSAY SYSTEM: human mAChRM1 (Homo sapiens, UniProt P11229)
pEC50: 5.56
